# Test system: Male Long Evans rats
# protocol: In vivo antispermatogenic testing in Long Evans rats
# stated conditions: 25 mg/kg single i.p. injection; animals responding out of animals surviving; five days following injection
The entries below are paired with their reported Response 25 mg/kg.

// worked examples, Response 25 mg/kg included
INSERT INTO assay_data (molecule, assay_system, readout_value) VALUES
  ('NNC(=O)c1nn(Cc2ccc(Cl)cc2Cl)c2ncccc12 [RC-MC-60]', 'Male Long Evans rats', '0/5'),
  ('COC(=O)c1nn(Cc2ccc(Cl)cc2Cl)c2ccc(OC)nc12 [JWS-1-142]', 'Male Long Evans rats', '0/5'),
  ('COC(=O)c1nn(Cc2ccc(F)cc2F)c2cc(C(F)(F)F)ccc12 [JWS-1-270]', 'Male Long Evans rats', '0/5');

Response 25 mg/kg for O=C(O)/C=C/c1nn(Cc2ccc(Cl)cc2Cl)c2cc(F)ccc12 [JWS-1-170] is 3/5

Response 25 mg/kg for COC(=O)c1nn(Cc2ccc(Cl)cc2Cl)c2cccnc12 [JWS-1-110] is 0/5

Response 25 mg/kg for Cc1ccc2c(/C=C/C(=O)O)nn(Cc3ccc(Cl)cc3Cl)c2c1 [TH-2-192] is 0/5

Response 25 mg/kg for COc1ccc2c(n1)c(C(=O)O)nn2Cc1ccc(Cl)cc1Cl [JWS-1-144] is 0/5

Response 25 mg/kg for Cc1ccc2c(C(=O)O)nn(Cc3ccc(Cl)cc3Cl)c2c1 [TH-2-178] is 0/5

Response 25 mg/kg for COC(=O)c1nn(Cc2ccc(Cl)cc2Cl)c2ccc(C(F)(F)F)cc12 [JWS-1-254] is 0/5

###

# Tested on: Salmonella Typhimurium TA 100
# protocol: Ames test for mutagenicity (plate assay, colony count)
# stated conditions: (−)S9 mix, 10 mg/pl., 48 hours at 37° C.
parameter measured: Ames test (−)S9 10 mg/pl.

INSERT INTO measurements (input_smiles, assay_system, readout_value) VALUES
  ('NNC(=O)c1nn(Cc2ccc(F)cc2F)c2cc(Cl)ccc12', 'Salmonella Typhimurium TA 100', 'Pass'),
  ('COc1ccc2c(n1)c(C(=O)O)nn2Cc1ccc(Cl)cc1Cl', 'Salmonella Typhimurium TA 100', 'Pass'),
  ('COC(=O)c1nn(Cc2ccc(F)cc2F)c2cc(C(F)(F)F)ccc12', 'Salmonella Typhimurium TA 100', 'Pass'),
  ('O=C(O)c1nn(Cc2ccc(F)cc2F)c2cc(Cl)ccc12', 'Salmonella Typhimurium TA 100', 'Fail');

Ames test (−)S9 10 mg/pl. for `NNC(=O)c1nn(Cc2ccc(Cl)cc2Cl)c2cc(F)ccc12` is Pass

Ames test (−)S9 10 mg/pl. for `NNC(=O)c1nn(Cc2ccc(Cl)cc2Cl)c2ccc(C(F)(F)F)cc12` is Pass

Ames test (−)S9 10 mg/pl. for `COC(=O)c1nn(Cc2ccc(Cl)cc2Cl)c2cc(F)ccc12` is Pass

Ames test (−)S9 10 mg/pl. for `O=C(O)c1nn(Cc2ccc(Cl)cc2Cl)c2cccnc12` is Pass

Ames test (−)S9 10 mg/pl. for `O=C(O)/C=C/c1nn(Cc2ccc(F)cc2Cl)c2cc(C(F)(F)F)ccc12` is Mar-

Ames test (−)S9 10 mg/pl. for `O=C(O)c1nn(Cc2ccc(F)cc2Cl)c2cc(Cl)ccc12` is Fail

Ames test (−)S9 10 mg/pl. for `O=C(O)/C=C/c1nn(Cc2ccc(Cl)cc2Cl)c2ncccc12` is Fail

Ames test (−)S9 10 mg/pl. for `O=C(O)c1nn(Cc2ccc(F)cc2F)c2cc(C(F)(F)F)ccc12` is Pass

Ames test (−)S9 10 mg/pl. for `Cc1ccc2c(/C=C/C(=O)O)nn(Cc3ccc(Cl)cc3Cl)c2c1` is Pass

Ames test (−)S9 10 mg/pl. for `NNC(=O)c1nn(Cc2ccc(Cl)cc2Cl)c2cc(C(F)(F)F)ccc12` is Pass

Ames test (−)S9 10 mg/pl. for `O=C(O)c1nn(Cc2ccc(F)cc2F)c2ccc(C(F)(F)F)cc12` is Fail

Ames test (−)S9 10 mg/pl. for `COc1ccc2c(n1)c(C(=O)NN)nn2Cc1ccc(Cl)cc1Cl` is Pass

Ames test (−)S9 10 mg/pl. for `COC(=O)c1nn(Cc2ccc(Cl)cc2Cl)c2ccc(OC)nc12` is Pass

Ames test (−)S9 10 mg/pl. for `NNC(=O)c1nn(Cc2ccc(F)cc2F)c2ccc(C(F)(F)F)cc12` is Pass

Ames test (−)S9 10 mg/pl. for `CCCOC(=O)c1nn(Cc2ccc(Cl)cc2Cl)c2ccccc12` is Pass

Ames test (−)S9 10 mg/pl. for `O=C(O)/C=C/c1nn(Cc2ccc(F)cc2F)c2cc(Cl)ccc12` is Fail

###

# System: Salmonella Typhimurium TA 100
# protocol: Ames test for mutagenicity (plate assay, colony count)
# stated conditions: (−)S9 mix, 1 mg/pl., 48 hours at 37° C.
parameter measured: Ames test (−)S9 1 mg/pl.

// worked examples, Ames test (−)S9 1 mg/pl. included
INSERT INTO measurements (input_smiles, parameter_measured, readout_value) VALUES
  ('CCOC(=O)c1nn(Cc2ccc(Cl)cc2Cl)c2ccccc12', 'Ames test (−)S9 1 mg/pl.', 'Pass'),
  ('O=C(O)c1nn(Cc2ccc(Cl)cc2Cl)c2cnccc12', 'Ames test (−)S9 1 mg/pl.', 'Pass'),
  ('O=C(O)c1nn(Cc2ccc(Cl)cc2Cl)c2cc(F)ccc12', 'Ames test (−)S9 1 mg/pl.', 'Pass'),
  ('CCCOC(=O)c1nn(Cc2ccc(Cl)cc2Cl)c2ccccc12', 'Ames test (−)S9 1 mg/pl.', 'Pass'),
  ('O=C(O)/C=C/c1nn(Cc2ccc(Cl)cc2Cl)c2ccc(C(F)(F)F)cc12', 'Ames test (−)S9 1 mg/pl.', 'Pass'),
  ('COC(=O)c1nn(Cc2ccc(F)cc2F)c2cc(Cl)ccc12', 'Ames test (−)S9 1 mg/pl.', 'Pass'),
  ('O=C(O)/C=C/c1nn(Cc2ccc(F)cc2Cl)c2cc(Cl)ccc12', 'Ames test (−)S9 1 mg/pl.', 'Fail'),
  ('NNC(=O)/C=C/c1nn(Cc2ccc(Cl)cc2Cl)c2cc(C(F)(F)F)ccc12', 'Ames test (−)S9 1 mg/pl.', 'Fail');

Ames test (−)S9 1 mg/pl. for `O=C(O)c1nn(Cc2ccc(Cl)cc2Cl)c2cc(C(F)(F)F)cnc12` is Pass

###

# System: Male Long Evans rats
# protocol: In vivo antispermatogenic testing in Long Evans rats
# stated conditions: 25 mg/kg single i.p. injection; animals responding out of animals surviving; five days following injection
parameter measured: Response 25 mg/kg

INSERT INTO assay_data (input_smiles, parameter_measured, readout_value) VALUES
  ('Cc1ccc2c(C(=O)NN)nn(Cc3ccc(Cl)cc3Cl)c2c1', 'Response 25 mg/kg', '2/5'),
  ('O=C(O)c1nn(Cc2ccc(Cl)cc2Cl)c2cc(Cl)ccc12', 'Response 25 mg/kg', '0/5'),
  ('O=C(O)/C=C/c1nn(Cc2ccc(Cl)cc2Cl)c2cc(C(F)(F)F)ccc12', 'Response 25 mg/kg', '5/5'),
  ('NNC(=O)c1nn(Cc2ccc(Cl)cc2Cl)c2cc(C(F)(F)F)ccc12', 'Response 25 mg/kg', '0/5');

Attention now shifts to the item below.
Query `COC(=O)c1nn(Cc2ccc(Cl)cc2Cl)c2cnccc12` on Male Long Evans rats; Response 25 mg/kg returned: 0/5

###

# Test system: Salmonella Typhimurium TA 100
# protocol: Ames test for mutagenicity (plate assay, colony count)
# stated conditions: (−)S9 mix, 10 mg/pl., 48 hours at 37° C.
parameter measured: Ames test (−)S9 10 mg/pl.

// worked examples, Ames test (−)S9 10 mg/pl. included
INSERT INTO assay_data (input_smiles, assay_system, readout_value) VALUES
  ('CCOC(=O)c1nn(Cc2ccc(Cl)cc2Cl)c2ccccc12', 'Salmonella Typhimurium TA 100', 'Pass'),
  ('O=C(O)/C=C/c1nn(Cc2ccc(Cl)cc2Cl)c2ccc(C(F)(F)F)cc12', 'Salmonella Typhimurium TA 100', 'Pass'),
  ('O=C(O)c1nn(Cc2ccc(Cl)cc2Cl)c2cc(Cl)ccc12', 'Salmonella Typhimurium TA 100', 'Pass'),
  ('Cc1ccc2c(C(=O)NN)nn(Cc3ccc(Cl)cc3Cl)c2c1', 'Salmonella Typhimurium TA 100', 'Pass'),
  ('COC(=O)c1nn(Cc2ccc(Cl)cc2Cl)c2ccc(C(F)(F)F)cc12', 'Salmonella Typhimurium TA 100', 'Pass'),
  ('COC(=O)c1nn(Cc2ccc(Cl)cc2Cl)c2cnccc12', 'Salmonella Typhimurium TA 100', 'Pass');

Ames test (−)S9 10 mg/pl. for `NNC(=O)c1nn(Cc2ccc(F)cc2F)c2cc(C(F)(F)F)ccc12` is Pass

Ames test (−)S9 10 mg/pl. for `NNC(=O)c1nn(Cc2ccc(Cl)cc2Cl)c2cccnc12` is Fail
